test_system: T1, human E-selectin, cell-surface expressed (human, UniProt P16581 22-610)
T1 construct: also called CHO-human E-selectin cells; human CHO-E
T1 sequence: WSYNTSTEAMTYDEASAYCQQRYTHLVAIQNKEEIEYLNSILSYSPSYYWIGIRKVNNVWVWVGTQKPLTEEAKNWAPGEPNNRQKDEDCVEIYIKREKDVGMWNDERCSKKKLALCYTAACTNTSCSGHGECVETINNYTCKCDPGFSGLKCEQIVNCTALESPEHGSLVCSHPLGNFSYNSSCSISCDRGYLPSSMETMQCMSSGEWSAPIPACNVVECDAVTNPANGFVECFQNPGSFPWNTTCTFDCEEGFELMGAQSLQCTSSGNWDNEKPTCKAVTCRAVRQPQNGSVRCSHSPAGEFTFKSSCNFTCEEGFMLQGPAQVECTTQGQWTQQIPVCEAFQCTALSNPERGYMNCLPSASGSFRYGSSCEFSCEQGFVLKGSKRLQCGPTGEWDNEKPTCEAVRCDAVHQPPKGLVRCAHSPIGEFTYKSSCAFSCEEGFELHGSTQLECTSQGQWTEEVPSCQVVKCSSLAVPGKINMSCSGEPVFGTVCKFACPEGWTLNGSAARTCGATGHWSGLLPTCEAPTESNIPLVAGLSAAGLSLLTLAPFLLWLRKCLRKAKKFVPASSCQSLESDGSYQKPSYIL
procedure_details: competition ELISA on CHO cells vs sialyl Lewis A-PAA-biotin/SA-HRP
pIC50 values for the binders below.
Lab note: report pIC50 as minus log10 of the concentration in molar units, number only.

Q: Given anti-E-selectin antibody 0158 chimera (antibody, human IgG1, kappa, V domains shown, rat VH/VL on effector-null human IgG1 and human kappa) VH: QVQLKESGPGLVQPSETLSLTCTVSGFSISTYNVHWLRQPPGKGLEWMGMMWSGGSPDYNSALKSRLSISRDTSKNQVFLKMNSLQSEDTTTYYCARWGGGFDYWGQGVMVTVSS VL: DIVLTQSPTTLSVTPGETVSLSCRASHSIGTNLHWYQQKTNESPRLLIKFTSQSISGIPSRFSASGSGTDFTLNINNVEFDDVSSYFCQQTQSWPLTFGSGTKLEIKR , state its recorded pIC50.
Result: 8.54

Q: Query anti-E-selectin antibody 0180 chimera (antibody, human IgG1, kappa, V domains shown, rat VH/VL on effector-null human IgG1 and human kappa) VH: EVQLQQSGAELGKPGTSVKLSCKVSGYKIRSSYMHWVNQRPGKGLEWIGRIDPANGNTIYGDKFKSKATLTSDTSSNTAYIQLSQLKSDDTAIYFCAIDIGTTFDYWGQGVMVTVSS VL: DIQMTQSPSFLSASVGDRVTINCKASQHINRYLNWYQQKLGEAPKLLIYDANNLQTGIPSRFSGSGSGTDFTLTISSLQPEDVATYFCLQHNSWPNTFGAGTKLELKR next
Result: 8.42

Q: // repeat for anti-E-selectin antibody 0039 chimera (antibody, human IgG1, kappa, V domains shown, rat VH/VL on effector-null human IgG1 and human kappa) VH: QVQLKETGPGLVQPTQTLSITCTVSGFSLTGYYMQWVRQTPGKGLEWMGFIRSSGSTEYNSEFKSRLSISRDTSKNQVFLKMNSLKTEDTGVYYCARCPYKYSSFVYVGVMDAWGQGAPVTVSS VL: EIVMTQSPTSMSTSIGERVTLNCKASQTVGINVDWYQQTPGQPPKLLIYGASNRHTGVPDRFTGSGFGRDFTLTISNVEAEDLAVYCCLQYGSIPHTFGPGTKLELKR and report
Result: 8.42

Q: Also anti-E-selectin antibody 0170 chimera (antibody, human IgG1, kappa, V domains shown, rat VH/VL on effector-null human IgG1 and human kappa) VH: EVQLQQSGAELGKPGTSVKLSCKVSGYSIRSTYMHWVNQRPGKGLEWVGRIDPANGNTIYAERFKNKATLTADTSSNTAYMQLSQLKSDDTAIYFCAVEILGIFDYWGQGVMVTVSS VL: DIQMTQSPSFLSASVGDRVTINCKASQNIDKYLDWYQQKLGEAPKLLMYNTNSLHTGIPSRFSGSGSGTDFTLTISSLQPEDVATYFCLQHNSGYTFGAGTKLELKR ?
Result: 8.64

Q: Same again, this time with anti-E-selectin antibody 0164 chimera (antibody, human IgG1, kappa, V domains shown, rat VH/VL on effector-null human IgG1 and human kappa) VH: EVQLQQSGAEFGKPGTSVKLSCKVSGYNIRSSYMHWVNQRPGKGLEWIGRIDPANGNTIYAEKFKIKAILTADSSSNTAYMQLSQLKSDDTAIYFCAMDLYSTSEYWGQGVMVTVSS VL: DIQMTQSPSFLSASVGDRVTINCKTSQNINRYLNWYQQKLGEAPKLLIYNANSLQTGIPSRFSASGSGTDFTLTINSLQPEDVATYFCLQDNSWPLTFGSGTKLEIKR
Result: 8.56

Further cases:
Q: Which pIC50 reading was recorded for the binder anti-E-selectin antibody 0159 chimera (antibody, human IgG1, kappa, V domains shown, rat VH/VL on effector-null human IgG1 and human kappa) VH: EVQLQQSGAELGKPGTSVKLSCKVSGYNIRSTYMHWVSQRPGKGLEWIGRIDPANGNTIYAEKFKRKATLTADTSSNTAYMQLSQLKSDDRAIYFCAMEVRVSFEYWGQGVMVTVSS VL: DIQMTQSPSFLSASVGDRVTINCKASQNINKYLDWYQQKLGEGPKLLIYYTNNLHTGIPSRFSGSGSGTDFTLTISSLQPEDVATYFCLQHDSGYTFGAGTKLELKR ?
Result: 8.49
